- Test system: HCC-2998 colon
- experiment.notes: NCI tumour cell line growth inhibition, 48 h

| compound | bound.sign | TGI [µM] |
| --- | --- | --- |
| FC(F)(F)c1ccc(C=NC23CC4CC(CC(C4)C2)C3)cc1 | > | 100 |
| COC(=O)[C@]12CC[C@@H](C)[C@H](C)[C@@H]1C1=CC[C@@H]3[C@@]4(C)C(C=O)=C[C@@](C)(COC(C)=O)[C@@H]4[C@H](O)C[C@@]3(C)[C@]1(C)CC2 | = | 3.6 |
| CC1CCCC(C(O)CC2CC(=O)N(c3ccccc3)C(=O)C2)C1=O (stereo unspecified) | > | 100 |
| Oc1cc(Cl)cc2cc(Br)cnc12 | > | 73.9 |
| COc1cc2cc(Oc3ccc(NC(=O)Nc4ccccc4)cc3)c(C)nc2cc1OCCN1CCCCC1 | = | 10.5 |
| CCCCCCCCOc1ccc(/C=N/Nc2cc(C)nc3ccc(Cl)cc23)cc1 | = | 3.59 |
| CN(C)c1ccc(/C=C2\CNC/C(=C\c3ccc(N(C)C)cc3)C2=O)cc1 | > | 100 |
| Cc1cccc(-c2cc(=O)c3ccc(C)nc3[nH]2)c1 | = | 27.4 |
| COc1ccc(/C=C(/C(=O)N2CCCC2)c2cc(OC)c(OC)c(OC)c2)cc1N | > | 100 |
| CS(=O)(=O)N1CCN(Cc2cc3nc(-c4cccc5[nH]ncc45)nc(N4CCOCC4)c3s2)CC1 (tested in a mixture with another compound) | > | 100 |
| C=C1C(=O)O[C@H]2[C@H]1CC/C(COC(=O)C(=O)c1c[nH]c3ccc(OC)cc13)=C\CC[C@@]1(C)O[C@@H]21 | = | 9.82 |

* * *

- System: SK-MEL-28 melanoma
- experiment.notes: NCI tumour cell line growth inhibition, 48 h
# maps each entry to its GI50

| compound | measured.target | GI50 |
| --- | --- | --- |
| COC(=O)[C@]12CC[C@@H](C)[C@H](C)[C@@H]1C1=CC[C@@H]3[C@@]4(C)C(C=O)=C[C@@](C)(COC(C)=O)[C@@H]4[C@H](O)C[C@@]3(C)[C@]1(C)CC2 | SK-MEL-28 melanoma | 2160 nM |
| COc1ncc(-c2nc3c(n2C(C)C)[C@H](c2ccc(Cl)cc2)N(c2cc(Cl)cn(C)c2=O)C3=O)c(OC)n1 | SK-MEL-28 melanoma | 42200 nM |
| NC1=NC(c2ccccc2)N=C(Nc2ccccc2)N1 (stereo not drawn) | SK-MEL-28 melanoma | > 100000 nM |
| COc1cc2cc(Oc3ccc(NC(=O)Nc4ccccc4)cc3)c(C)nc2cc1OCCN1CCCCC1 | SK-MEL-28 melanoma | 5410 nM |
| CCC(=O)OC1CCn2c1nc1c2C(=O)C(C)=C(N2CC2)C1=O (stereo not drawn) | SK-MEL-28 melanoma | 36.8 nM |
| COc1ccc(-c2cnc(-c3ccc(F)cc3)[nH]2)cc1 | SK-MEL-28 melanoma | 3690 nM |
| CC(CN)[C@@H]1CC[C@]2(CO)CC[C@]3(C)[C@H](CC[C@@H]4[C@@]5(C)CCC(NCCO)C(C)(C)[C@@H]5CC[C@]43C)[C@@H]12 (stereo partly drawn) | SK-MEL-28 melanoma | 1870 nM |
| CC[N+](CC)=c1ccc2nc3c(cc(NCc4ccccc4)c4ccccc43)oc-2c1 | SK-MEL-28 melanoma | 1200 nM |
